Target: HLA-A*11:01
Assay: IEDB peptide-MHC binding, purified MHC/direct/fluorescence; filed as Kd, often an IC50 or EC50 that approximates it; bounds were set here for any values at or beyond the usual limits of such assays
Conditions: source organism: Bacillus anthracis
Test Readout: Kd

>  <Monomer Sequence>
PRFGSCYFL

>  <Reported>
≥ 20 µM

$$$$

====

Biological target: HLA-B*44:02
Assay: IEDB peptide-MHC binding, purified MHC/direct/fluorescence; filed as Kd, often an IC50 or EC50 that approximates it; bounds were set here for any values at or beyond the usual limits of such assays
Details: source organism: Yellow fever virus
pKd: −log10 of the molar value.
Test Readout: pKd

>  <Monomer Sequence>
EVRLATMLF

>  <Test Readout>
pKd

>  <Reported>
≤ 4.70

$$$$
>  <Monomer Sequence>
YFHKRDMRL

>  <Test Readout>
pKd

>  <Reported>
≤ 4.70

$$$$
